B1: BTBD10 (parent)
chain: DRKLHSRPRKLYKHSSTSSRIAKG

Variants of: B1
PROTOCOL: protein stability index of a GFP-peptide fusion (GPS, HEK-293T) (PSI 1-6); higher = more stable;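 further: lentivirally expressed fusions sorted by FACS into six bins by GFP to DsRed ratio, PSI derived from sequencing read proportions per bin multiplied by bin number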
TEST_CONDITIONS: c terminus: a fixed tail appended
Reported protein stability index values are given for each entry in this list.
Answer as a number with no unit attached.

- DRKLHSRPRKLYKHSSNSSRIAKG [T17N]: 3.18
- DRKLHSRPRKLYKHSSTSSRIAIG [K23I]: 2.92
- DRKLHSRPRKLYKHSSTSSRIAKT [G24T]: 4
- DRKLHSRPRKLYKHSSTSSYIAKG [R20Y]: 3.94
- DRKLHSRPRKLYKHSSTHSRIAKG [S18H]: 3.6
- DRKLHSRPIKLYKHSSTSSRIAKG [R9I]: 3.02
- DRKLHSHPRKLYKHSSTSSRIAKG [R7H]: 3.79
- QRKLHSRPRKLYKHSSTSSRIAKG [D1Q]: 3.81

**Query** Provide one value: measured protein stability index of DRKLHSRPRKLYKHSSTSPRIAKG [S19P]
**Result** 4.34

**Query** Provide one value: measured protein stability index of DRKLHSRPRKNYKHSSTSSRIAKG [L11N]
**Result** 3.46

**Query** Provide one value: measured protein stability index of ERKLHSRPRKLYKHSSTSSRIAKG [D1E]
**Result** 3.89
